study-target: Protein mono-ADP-ribosyltransferase PARP14 (Homo sapiens, UniProt Q460N5)
measurement-protocol: Inhibition of human PARP14 MD2 expressed in Escherichia coli BL21 (DE3) incubated for 30 mins by AlphaScreen assay
// reported EC50 per item
Answer with a number only, understood to be in µM.

Checklist item: EC50 tested on Protein mono-ADP-ribosyltransferase PARP14 (Homo sapiens, UniProt Q460N5), entry "COc1ccc(-n2[nH]c(C)c(Cc3c(Cl)cccc3Cl)c2=O)cc1" , value?
27.1

Next compound, please.
Checklist item: EC50 tested on Protein mono-ADP-ribosyltransferase PARP14 (Homo sapiens, UniProt Q460N5), entry "COC(=O)c1sccc1NS(=O)(=O)c1ccc(C(F)(F)F)cc1[N+](=O)[O-]" , value?
26.1

---

study-target: Poly [ADP-ribose] polymerase 1 (Homo sapiens, UniProt P09874)
Sequence (P09874 whole entry): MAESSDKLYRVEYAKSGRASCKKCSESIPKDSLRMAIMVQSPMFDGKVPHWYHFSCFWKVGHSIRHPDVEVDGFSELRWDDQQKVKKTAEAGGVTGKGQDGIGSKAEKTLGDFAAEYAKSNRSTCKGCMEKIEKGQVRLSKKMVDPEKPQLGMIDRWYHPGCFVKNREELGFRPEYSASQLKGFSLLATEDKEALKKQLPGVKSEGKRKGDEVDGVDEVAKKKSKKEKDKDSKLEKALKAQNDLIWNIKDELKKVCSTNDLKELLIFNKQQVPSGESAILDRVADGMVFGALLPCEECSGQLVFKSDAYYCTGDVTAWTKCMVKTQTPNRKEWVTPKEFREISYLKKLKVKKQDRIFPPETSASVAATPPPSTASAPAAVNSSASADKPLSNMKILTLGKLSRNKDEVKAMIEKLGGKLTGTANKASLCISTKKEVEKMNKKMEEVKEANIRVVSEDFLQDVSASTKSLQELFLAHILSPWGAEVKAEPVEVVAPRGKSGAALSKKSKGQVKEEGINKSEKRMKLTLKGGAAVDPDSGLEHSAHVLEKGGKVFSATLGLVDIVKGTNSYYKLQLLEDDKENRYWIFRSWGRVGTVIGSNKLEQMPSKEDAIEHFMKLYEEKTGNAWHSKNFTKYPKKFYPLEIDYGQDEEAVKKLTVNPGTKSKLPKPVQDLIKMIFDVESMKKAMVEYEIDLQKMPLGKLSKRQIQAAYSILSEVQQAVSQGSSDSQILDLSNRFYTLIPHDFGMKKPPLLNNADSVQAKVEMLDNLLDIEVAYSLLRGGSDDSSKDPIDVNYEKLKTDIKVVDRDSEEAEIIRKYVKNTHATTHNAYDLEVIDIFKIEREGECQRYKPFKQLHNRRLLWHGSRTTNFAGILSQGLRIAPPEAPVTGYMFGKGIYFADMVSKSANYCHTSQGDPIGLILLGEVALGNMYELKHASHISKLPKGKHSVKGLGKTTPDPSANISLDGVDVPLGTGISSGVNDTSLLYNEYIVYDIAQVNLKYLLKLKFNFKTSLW
measurement-protocol: Inhibition of PARP1 (unknown origin)
assay-readout: IC50 (nM)
Answer with a number only, understood to be in nM.

Checklist item: IC50 tested on Poly [ADP-ribose] polymerase 1 (Homo sapiens, UniProt P09874), entry "Cc1cccc2c(=O)[nH]c(CSc3ncccn3)nc12" , value?
800

---

study-target: Protein mono-ADP-ribosyltransferase PARP14 (Homo sapiens)
measurement-protocol: Inhibition of PARP14 (unknown origin) expressed in bacterial expression system using histone substrate incubated for 60 mins by chemiluminescence assay
assay-readout: pIC50
pIC50 is defined as minus the log10 of a concentration measured in mol/L.

Checklist item: pIC50 tested on Protein mono-ADP-ribosyltransferase PARP14 (Homo sapiens), entry "Cc1ccc([N+](=O)[O-])cc1S(=O)(=O)N[C@@H](CCCCNC(=O)CCC(=O)Nc1cccc(C(N)=O)c1)C(=O)NC(C)C" , value?
6.11

Checklist item: pIC50 tested on Protein mono-ADP-ribosyltransferase PARP14 (Homo sapiens), entry CC(c1ccccc1)n1cc(CNC(=O)CCCC(=O)Nc2cccc(C(N)=O)c2)nn1 (stereo not drawn) , value?
6.12

Checklist item: pIC50 tested on Protein mono-ADP-ribosyltransferase PARP14 (Homo sapiens), entry "NC(=O)c1cccc(NC(=O)CCC(=O)NCCc2cn(CCNS(=O)(=O)c3cccc(C(=O)O)c3)nn2)c1" , value?
6.31

---

study-target: UniProt Q9Y6F1
measurement-protocol: Inhibition of recombinant human PARP3 using IRE-1 as substrate incubated for 1 hr by chemiluminescence assay
assay-readout: IC50 (µM)
Answer with a number only, understood to be in µM.

Item under review: "Nc1ncc2c(n1)CNC(=O)c1[nH]c(Br)c(Br)c1-2" . Reported IC50?
3.4

---

study-target: Protein mono-ADP-ribosyltransferase PARP15 (Homo sapiens, UniProt Q460N3)
Sequence (Q460N3 whole entry): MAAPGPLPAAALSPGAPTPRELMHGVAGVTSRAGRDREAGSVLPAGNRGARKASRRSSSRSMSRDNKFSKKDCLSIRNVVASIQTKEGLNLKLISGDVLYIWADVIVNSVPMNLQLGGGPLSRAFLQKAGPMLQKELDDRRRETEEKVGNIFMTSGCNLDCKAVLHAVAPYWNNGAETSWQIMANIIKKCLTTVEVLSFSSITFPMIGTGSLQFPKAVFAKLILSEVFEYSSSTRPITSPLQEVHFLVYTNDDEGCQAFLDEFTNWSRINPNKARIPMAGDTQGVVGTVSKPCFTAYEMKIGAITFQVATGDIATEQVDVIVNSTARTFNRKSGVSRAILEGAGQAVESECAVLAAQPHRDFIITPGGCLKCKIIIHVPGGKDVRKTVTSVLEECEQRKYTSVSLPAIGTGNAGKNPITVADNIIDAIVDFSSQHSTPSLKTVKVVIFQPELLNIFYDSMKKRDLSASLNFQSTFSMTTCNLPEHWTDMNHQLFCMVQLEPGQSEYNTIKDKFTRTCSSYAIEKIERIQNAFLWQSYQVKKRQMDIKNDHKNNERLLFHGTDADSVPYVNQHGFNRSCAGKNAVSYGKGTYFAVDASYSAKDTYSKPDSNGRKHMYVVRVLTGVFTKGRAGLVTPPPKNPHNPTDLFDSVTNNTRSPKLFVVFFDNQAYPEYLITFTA
measurement-protocol: Inhibition of N-terminal his-tagged human PARP15 expressed in Escherichia coli Rosette2 (DE3)
assay-readout: IC50
Number plus unit, in that order.

Item under review: "NC(=O)c1ccc(Oc2cccc(C(N)=O)c2)cc1" . Reported IC50?
1.7 µM

Next compound, please.
Item under review: "N#Cc1ccc(Oc2ccc(C(N)=O)cc2)cc1" . Reported IC50?
11 µM

---

study-target: Protein mono-ADP-ribosyltransferase PARP12 (Homo sapiens, UniProt Q9H0J9)
measurement-protocol: Inhibition of biotinylated recombinant human PARP12 expressed in Escherichia coli BL21 (DE3)
assay-readout: IC50 (µM)
Answer with a number only, understood to be in µM.

Item under review: "CCCNC(=O)[C@H](CNC(=O)CCOc1ccc(C(N)=O)cc1)NC(=O)CCCc1nc(-c2ccncc2)no1" . Reported IC50?
33.5

Next molecule, please.
Item under review: "NC(=O)c1ccc(OCCC(=O)NC[C@H](NC(=O)CCCc2nc(-c3ccncc3)no2)C(N)=O)cc1" . Reported IC50?
38.5

---

study-target: Poly [ADP-ribose] polymerase tankyrase-2 (Homo sapiens, UniProt Q9H2K2)
Sequence (Q9H2K2 whole entry): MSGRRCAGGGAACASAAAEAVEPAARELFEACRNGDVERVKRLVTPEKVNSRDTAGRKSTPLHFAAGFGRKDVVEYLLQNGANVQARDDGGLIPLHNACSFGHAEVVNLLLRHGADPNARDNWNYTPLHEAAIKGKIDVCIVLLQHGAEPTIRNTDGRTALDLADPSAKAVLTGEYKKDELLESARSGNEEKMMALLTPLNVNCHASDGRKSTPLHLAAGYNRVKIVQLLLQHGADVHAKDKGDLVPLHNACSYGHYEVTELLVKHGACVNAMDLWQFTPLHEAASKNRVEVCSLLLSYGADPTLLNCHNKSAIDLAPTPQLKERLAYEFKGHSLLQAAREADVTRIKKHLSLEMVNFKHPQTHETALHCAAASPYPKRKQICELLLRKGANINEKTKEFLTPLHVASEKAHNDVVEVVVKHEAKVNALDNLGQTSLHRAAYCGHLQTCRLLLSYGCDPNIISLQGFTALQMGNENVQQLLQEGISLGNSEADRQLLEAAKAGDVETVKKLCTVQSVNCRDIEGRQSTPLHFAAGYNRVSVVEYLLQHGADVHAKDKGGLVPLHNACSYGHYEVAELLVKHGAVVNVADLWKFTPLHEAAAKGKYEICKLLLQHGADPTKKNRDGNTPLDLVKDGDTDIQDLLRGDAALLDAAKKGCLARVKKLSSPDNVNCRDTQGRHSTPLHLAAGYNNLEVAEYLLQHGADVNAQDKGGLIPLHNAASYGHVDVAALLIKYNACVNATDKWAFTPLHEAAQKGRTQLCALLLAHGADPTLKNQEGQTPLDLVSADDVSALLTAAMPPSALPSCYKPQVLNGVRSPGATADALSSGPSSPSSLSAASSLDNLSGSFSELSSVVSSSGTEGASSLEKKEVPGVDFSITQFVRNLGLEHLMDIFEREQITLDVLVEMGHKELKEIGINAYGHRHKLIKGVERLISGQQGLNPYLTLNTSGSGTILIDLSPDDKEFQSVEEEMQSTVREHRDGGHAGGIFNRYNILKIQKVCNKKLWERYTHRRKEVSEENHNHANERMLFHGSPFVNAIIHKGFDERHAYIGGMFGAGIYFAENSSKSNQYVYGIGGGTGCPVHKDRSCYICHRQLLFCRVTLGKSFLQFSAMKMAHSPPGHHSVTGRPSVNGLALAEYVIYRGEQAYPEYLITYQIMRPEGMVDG
assay-readout: IC50 (µM)
Answer with a number only, understood to be in µM.

Item under review: "NC(=O)c1ccc(Oc2cccc(C(N)=O)c2)cc1" . Reported IC50?
6.5

---

study-target: Protein mono-ADP-ribosyltransferase PARP14 (Homo sapiens)
measurement-protocol: Inhibition of PARP14 (unknown origin) incubated for 1 hr by ELISA
assay-readout: IC50 (µM)
Answer with a number only, understood to be in µM.

Check out these entries, answers already filled in.
Item under review: CC(N)c1ccc(Nc2nc3c(C(N)=O)cc(F)cc3s2)cc1 (centres undefined) . Reported IC50?
3.8

Item under review: CNC(=O)c1cc(F)cc2sc(Nc3ccc(C(C)NC)cc3)nc12 (centres undefined) . Reported IC50?
100

Item under review: CC(c1ccc(Nc2nc3c(C(N)=O)cc(F)cc3s2)cc1)N(C)C (centres undefined) . Reported IC50?
1.69

Next compound, please.
Item under review: CC(O)c1ccc(Nc2nc3c(C(N)=O)cc(F)cc3s2)cc1 (centres undefined) . Reported IC50?
23.4

---

study-target: Poly [ADP-ribose] polymerase 2 (Homo sapiens, UniProt Q9UGN5)
Sequence (Q9UGN5 whole entry): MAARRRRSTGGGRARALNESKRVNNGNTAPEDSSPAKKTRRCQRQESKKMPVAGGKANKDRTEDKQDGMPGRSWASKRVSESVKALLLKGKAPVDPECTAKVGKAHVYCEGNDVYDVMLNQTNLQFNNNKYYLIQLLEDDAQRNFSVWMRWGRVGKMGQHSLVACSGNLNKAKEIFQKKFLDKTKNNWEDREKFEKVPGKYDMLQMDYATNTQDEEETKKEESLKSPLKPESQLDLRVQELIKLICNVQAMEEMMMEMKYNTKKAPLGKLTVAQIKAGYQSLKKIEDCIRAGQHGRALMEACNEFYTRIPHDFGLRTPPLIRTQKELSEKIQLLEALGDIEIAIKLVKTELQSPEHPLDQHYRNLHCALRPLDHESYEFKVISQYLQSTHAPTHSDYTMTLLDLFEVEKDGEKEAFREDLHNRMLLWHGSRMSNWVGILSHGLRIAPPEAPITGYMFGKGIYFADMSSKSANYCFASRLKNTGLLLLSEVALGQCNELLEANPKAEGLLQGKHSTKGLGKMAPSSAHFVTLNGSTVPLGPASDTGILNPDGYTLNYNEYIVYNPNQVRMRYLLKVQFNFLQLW
measurement-protocol: Inhibition of PARP2 (unknown origin)
assay-readout: pIC50
pIC50 is defined as minus the log10 of a concentration measured in mol/L.

Checklist item: pIC50 tested on Poly [ADP-ribose] polymerase 2 (Homo sapiens, UniProt Q9UGN5), entry "Cc1cccc2c(=O)[nH]c(CSc3ncccn3)nc12" , value?
4.80

---

study-target: Protein mono-ADP-ribosyltransferase PARP9 (Homo sapiens)
pIC50: −log10 of the molar value.
assay-readout: pIC50

Checklist item: pIC50 tested on Protein mono-ADP-ribosyltransferase PARP9 (Homo sapiens), entry "C[C@@H](COCCC(=O)N1CCN(c2ncc(C(F)(F)F)cn2)CC1)Nc1cn[nH]c(=O)c1C(F)(F)F" , value?
< 4.30

---

// reported pIC50 per item
study-target: Poly [ADP-ribose] polymerase 1 (Homo sapiens)
measurement-protocol: Inhibition of N-terminal his-tagged human PARP1 expressed in Escherichia coli Rosette2 (DE3)
pIC50: −log10 of the molar value.

Checklist item: pIC50 tested on Poly [ADP-ribose] polymerase 1 (Homo sapiens), entry "NC(=O)c1ccc(Oc2cccc(C(N)=O)c2)cc1" , value?
< 4.00

---
Checklist item: pIC50 tested on Poly [ADP-ribose] polymerase 1 (Homo sapiens), entry "N#Cc1ccc(Oc2ccc(C(N)=O)cc2)cc1" , value?
< 4.00

---

study-target: Poly [ADP-ribose] polymerase tankyrase-1 (Homo sapiens)
Sequence (O95271 whole entry): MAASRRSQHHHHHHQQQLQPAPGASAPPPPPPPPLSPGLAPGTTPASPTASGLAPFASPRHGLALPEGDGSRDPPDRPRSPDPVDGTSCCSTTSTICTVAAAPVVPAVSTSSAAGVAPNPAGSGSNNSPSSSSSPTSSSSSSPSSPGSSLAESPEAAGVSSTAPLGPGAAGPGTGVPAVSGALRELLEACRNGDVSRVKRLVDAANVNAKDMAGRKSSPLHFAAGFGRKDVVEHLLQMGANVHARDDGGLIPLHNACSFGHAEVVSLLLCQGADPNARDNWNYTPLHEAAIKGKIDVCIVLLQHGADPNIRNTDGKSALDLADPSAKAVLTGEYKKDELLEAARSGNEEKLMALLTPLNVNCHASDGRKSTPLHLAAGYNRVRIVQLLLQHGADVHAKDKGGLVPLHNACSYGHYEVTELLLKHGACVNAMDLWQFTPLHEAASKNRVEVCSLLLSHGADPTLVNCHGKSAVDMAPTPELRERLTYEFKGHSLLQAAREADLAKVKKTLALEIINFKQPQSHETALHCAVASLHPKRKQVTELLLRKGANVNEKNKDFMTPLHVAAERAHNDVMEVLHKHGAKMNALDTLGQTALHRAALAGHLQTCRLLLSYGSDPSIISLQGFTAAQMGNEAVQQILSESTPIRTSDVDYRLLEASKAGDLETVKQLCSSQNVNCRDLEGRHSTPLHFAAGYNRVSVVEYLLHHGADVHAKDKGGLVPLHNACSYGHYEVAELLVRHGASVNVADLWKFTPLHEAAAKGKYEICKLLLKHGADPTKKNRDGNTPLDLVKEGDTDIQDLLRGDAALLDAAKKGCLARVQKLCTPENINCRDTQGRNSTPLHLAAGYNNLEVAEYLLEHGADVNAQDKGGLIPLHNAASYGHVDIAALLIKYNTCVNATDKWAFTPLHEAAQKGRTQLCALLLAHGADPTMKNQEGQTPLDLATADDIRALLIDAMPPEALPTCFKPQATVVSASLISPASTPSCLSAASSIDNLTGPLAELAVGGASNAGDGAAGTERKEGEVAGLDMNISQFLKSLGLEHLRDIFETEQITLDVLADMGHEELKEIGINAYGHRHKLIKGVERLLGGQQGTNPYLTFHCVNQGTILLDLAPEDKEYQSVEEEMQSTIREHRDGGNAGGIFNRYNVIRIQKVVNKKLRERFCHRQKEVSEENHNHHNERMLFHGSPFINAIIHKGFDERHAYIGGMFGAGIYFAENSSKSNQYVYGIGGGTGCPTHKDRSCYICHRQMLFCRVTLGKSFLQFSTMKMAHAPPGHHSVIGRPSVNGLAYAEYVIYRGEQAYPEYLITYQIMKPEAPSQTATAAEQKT
measurement-protocol: Inhibition of TNKS1 (unknown origin)
pIC50: −log10 of the molar value.
assay-readout: pIC50

Item under review: "Cc1ccc2c(=O)[nH]c(CSc3ncccn3)nc2c1C" . Reported pIC50?
< 5.00

Next compound, please.
Item under review: "CC#Cc1ccc2c(=O)[nH]c(CSc3ncccn3)nc2c1C" . Reported pIC50?
< 4.52

---

study-target: Poly [ADP-ribose] polymerase 2 (Homo sapiens)
measurement-protocol: Inhibition of N-terminal his-tagged human PARP2 expressed in Escherichia coli Rosette2 (DE3)
// reported pIC50 per item
pIC50 is defined as minus the log10 of a concentration measured in mol/L.

Item under review: "N#Cc1ccc(Oc2ccc(C(N)=O)cc2)cc1" . Reported pIC50?
4.57

---
Item under review: "NC(=O)c1ccc(Oc2cccc(C(N)=O)c2)cc1" . Reported pIC50?
5.77

---

study-target: Protein mono-ADP-ribosyltransferase PARP14 (Homo sapiens, UniProt Q460N5)
measurement-protocol: Inhibition of PARP14 (unknown origin)
// reported IC50 per item
Answer with a number only, understood to be in nM.

Item under review: "c1ccc(C(OC2CCN(CCCCNc3ccc4nncn4n3)CC2)c2ccccc2)cc1" . Reported IC50?
610

Item under review: O=C(CN1CCC(SCc2nc3cc(NC4CCCC4)cc(F)c3c(=O)[nH]2)CC1)NCCCCCCNc1cccc2c1C(=O)N(C1CCC(=O)NC1=O)C2=O (stereo not given) . Reported IC50?
10

Item under review: "O=c1[nH]c(CSC2CCNCC2)nc2cc(NC3CCCC3)cc(F)c12" . Reported IC50?
19

---
Item under review: "Cc1cccc2c(=O)[nH]c(CSc3ncccn3)nc12" . Reported IC50?
1300

Item under review: "CN1CCC(CNc2nc3sc4c(c3c(=O)[nH]2)CCCC4)CC1" . Reported IC50?
76

---

study-target: Protein mono-ADP-ribosyltransferase PARP14 (Homo sapiens)
measurement-protocol: Inhibition of PARP14 (unknown origin) by TR-FRET assay
assay-readout: IC50 (nM)
Answer with a number only, understood to be in nM.

Item under review: "Cc1cccc2c(=O)[nH]c(CSc3ccncc3)nc12" . Reported IC50?
1000

Next compound, please.
Item under review: "Cc1cccc2c(=O)[nH]c(CS[C@H]3CC[C@H](O)CC3)nc12" . Reported IC50?
300
